biological target: TTR variant Y78F (Homo sapiens, UniProt P02766, Y98F); experiment: Kinetic turbidity assay of acid induced fibril formation; type: biochemical; settings: inhibitor concentration at which the initial rate of fibril formation is half; Y78F TTR 0.4 mg/mL, pH 4.2, 37 °C; read-out: Kinetic turbidity assay IC50
pIC50: −log10 of the molar value.
READOUT_TYPE: pIC50

>  <COMPOUND>
COC(=O)[C@H](C)NC(=O)c1cc(-c2ccc(F)cc2F)ccc1O [10a]

>  <READOUT_TYPE>
pIC50

>  <QUALIFIER>
<

>  <RECORDED_VALUE>
4.30

$$$$
>  <COMPOUND>
COC(=O)C(CC(=O)O)NC(=O)c1cc(-c2ccc(F)cc2F)cc(I)c1O (centres unmarked) [17b]

>  <READOUT_TYPE>
pIC50

>  <QUALIFIER>
=

>  <RECORDED_VALUE>
5.39

$$$$
>  <COMPOUND>
NC(Cc1ccc(Oc2ccc(O)cc2)cc1)C(=O)O (centres unmarked) [T0, thyronine, reference compound]

>  <READOUT_TYPE>
pIC50

>  <QUALIFIER>
<

>  <RECORDED_VALUE>
4.30

$$$$
>  <COMPOUND>
CC(C)(C)OC(=O)CC(NC(=O)c1cc(-c2ccc(F)cc2F)cc(I)c1O)C(=O)O (centres unmarked) [18b]

>  <READOUT_TYPE>
pIC50

>  <QUALIFIER>
=

>  <RECORDED_VALUE>
5.22

$$$$
>  <COMPOUND>
CCOC(=O)c1cc(-c2ccc(F)cc2F)ccc1O

>  <READOUT_TYPE>
pIC50

>  <QUALIFIER>
<

>  <RECORDED_VALUE>
4.30

$$$$
>  <COMPOUND>
O=C(NC(CO)C(=O)O)c1cc(-c2ccc(F)cc2F)ccc1O (centres unmarked) [14a]

>  <READOUT_TYPE>
pIC50

>  <QUALIFIER>
<

>  <RECORDED_VALUE>
4.30

$$$$
>  <COMPOUND>
COC(=O)c1cc(-c2ccc(F)cc2F)ccc1O

>  <READOUT_TYPE>
pIC50

>  <QUALIFIER>
<

>  <RECORDED_VALUE>
4.30

$$$$
>  <COMPOUND>
CC(=O)Oc1ccc(-c2ccc(F)cc2F)cc1C(=O)O

>  <READOUT_TYPE>
pIC50

>  <QUALIFIER>
<

>  <RECORDED_VALUE>
4.30

$$$$
>  <COMPOUND>
CC(C)CC(NC(=O)c1cc(-c2ccc(F)cc2F)cc(I)c1O)C(=O)OC(C)(C)C (centres unmarked) [13b]

>  <READOUT_TYPE>
pIC50

>  <QUALIFIER>
<

>  <RECORDED_VALUE>
4.30

$$$$
>  <COMPOUND>
O=C(O)C[C@H](NC(=O)c1cc(-c2ccc(F)cc2F)ccc1O)C(=O)O [16a]

>  <READOUT_TYPE>
pIC50

>  <QUALIFIER>
<

>  <RECORDED_VALUE>
4.30

$$$$
>  <COMPOUND>
CC(NC(=O)c1cc(-c2ccc(F)cc2F)cc(I)c1O)C(=O)O (centres unmarked)

>  <READOUT_TYPE>
pIC50

>  <QUALIFIER>
=

>  <RECORDED_VALUE>
5.24

$$$$
>  <COMPOUND>
CCOC(=O)[C@H](C)NC(=O)c1cc(-c2ccc(F)cc2F)ccc1O [11a]

>  <READOUT_TYPE>
pIC50

>  <QUALIFIER>
<

>  <RECORDED_VALUE>
4.30

$$$$
>  <COMPOUND>
O=C(O)CCNC(=O)c1cc(-c2ccc(F)cc2F)ccc1O [22a]

>  <READOUT_TYPE>
pIC50

>  <QUALIFIER>
<

>  <RECORDED_VALUE>
4.30

$$$$
>  <COMPOUND>
COC(=O)c1cc(-c2ccc(F)cc2F)cc(I)c1N

>  <READOUT_TYPE>
pIC50

>  <QUALIFIER>
=

>  <RECORDED_VALUE>
5.12

$$$$
>  <COMPOUND>
CC(C)C[C@H](NC(=O)c1cc(-c2ccc(F)cc2F)ccc1O)C(=O)O [12a]

>  <READOUT_TYPE>
pIC50

>  <QUALIFIER>
<

>  <RECORDED_VALUE>
4.30

$$$$
>  <COMPOUND>
Oc1c(I)cc(I)cc1I [TIP, triiodophenol, reference compound]

>  <READOUT_TYPE>
pIC50

>  <QUALIFIER>
=

>  <RECORDED_VALUE>
5.49

$$$$
>  <COMPOUND>
O=C(O)CC(NC(=O)c1cc(-c2ccc(F)cc2F)cc(I)c1O)C(=O)O (centres unmarked) [16b]

>  <READOUT_TYPE>
pIC50

>  <QUALIFIER>
=

>  <RECORDED_VALUE>
5.28

$$$$
>  <COMPOUND>
CC(C)(C)OC(=O)[C@H](CC(N)=O)NC(=O)c1cc(-c2ccc(F)cc2F)cc(I)c1O [21b]

>  <READOUT_TYPE>
pIC50

>  <QUALIFIER>
=

>  <RECORDED_VALUE>
5.01

$$$$
>  <COMPOUND>
COC(=O)C(CC(=O)O)NC(=O)c1cc(-c2ccc(F)cc2F)ccc1O (centres unmarked) [17a]

>  <READOUT_TYPE>
pIC50

>  <QUALIFIER>
<

>  <RECORDED_VALUE>
4.30

$$$$
>  <COMPOUND>
NC(=O)CC(NC(=O)c1cc(-c2ccc(F)cc2F)cc(I)c1O)C(=O)O (centres unmarked) [20b]

>  <READOUT_TYPE>
pIC50

>  <QUALIFIER>
=

>  <RECORDED_VALUE>
5.11

$$$$

====

pIC50 values for the compounds below.
biological target: TTR variant Y78F (Homo sapiens, UniProt P02766, Y98F); assay: Kinetic turbidity assay of acid induced fibril formation; assay type: biochemical; settings: fibrillogenesis inhibition assay, effect of iodination; read-out: Inhibitory efficiency, rough screening (Figure 3, measure not given)
pIC50: −log10 of the molar value.

>  <COMPOUND>
O=C(O)c1ccccc1O [reference compound]

>  <QUALIFIER>
<

>  <pIC50>
4.00

$$$$
>  <COMPOUND>
O=C(O)c1ccc(-c2ccccc2)cc1 [Biphenyl carboxylic, reference compound]

>  <QUALIFIER>
=

>  <pIC50>
4.31

$$$$
>  <COMPOUND>
CC(C(=O)O)c1ccc(-c2ccccc2)c(F)c1 (centres unmarked) [Flurbiprofen, reference compound]

>  <QUALIFIER>
<

>  <pIC50>
4.00

$$$$
>  <COMPOUND>
O=C(O)c1ccc(Oc2ccccc2)cc1 [Phenoxybenzoic, reference compound]

>  <QUALIFIER>
=

>  <pIC50>
4.54

$$$$
>  <COMPOUND>
O=C(O)c1ccccc1Nc1cccc(C(F)(F)F)c1 [Flufenamic, reference compound]

>  <QUALIFIER>
=

>  <pIC50>
4.96

$$$$

====

biological target: TTR variant Y78F (Homo sapiens, UniProt P02766, Y98F); assay: Kinetic turbidity assay of acid induced fibril formation; format: biochemical; details: inhibitor concentration at which the initial rate of fibril formation is half; Y78F TTR 0.4 mg/mL, pH 4.2, 37 °C; read-out: Kinetic turbidity assay IC50
READOUT_TYPE: log10(IC50) (log10 of the value in µM)

>  <MOLECULE>
NC(=O)c1cc(-c2ccc(F)cc2F)cc(I)c1O [2b]

>  <log10(IC50)>
1.09

$$$$
>  <MOLECULE>
O=C(O)CNC(=O)c1cc(-c2ccc(F)cc2F)cc(I)c1O [8b]

>  <log10(IC50)>
1.05

$$$$
>  <MOLECULE>
CC(C)C[C@H](NC(=O)c1cc(-c2ccc(F)cc2F)cc(I)c1O)C(=O)O [12b]

>  <log10(IC50)>
0.70

$$$$
>  <MOLECULE>
CCOC(=O)[C@H](C)NC(=O)c1cc(-c2ccc(F)cc2F)cc(I)c1O [11b]

>  <log10(IC50)>
0.76

$$$$
>  <MOLECULE>
O=C(N[C@@H](CO)C(=O)O)c1cc(-c2ccc(F)cc2F)cc(I)c1O [14b]

>  <log10(IC50)>
0.57

$$$$
>  <MOLECULE>
CC(C)(C)OC(=O)CC(NC(=O)c1cc(-c2ccc(F)cc2F)ccc1O)C(=O)O (stereo not drawn) [18a]

>  <log10(IC50)>
1.58

$$$$
>  <MOLECULE>
COC(=O)C(CC(=O)OC(C)(C)C)NC(=O)c1cc(-c2ccc(F)cc2F)cc(I)c1O (stereo not drawn) [19b]

>  <log10(IC50)>
0.76

$$$$
>  <MOLECULE>
COC(=O)c1cc(-c2ccc(F)cc2F)cc(I)c1O [3b]

>  <log10(IC50)>
0.79

$$$$
>  <MOLECULE>
COC(=O)c1cc(-c2ccc(F)cc2F)ccc1N [6a]

>  <log10(IC50)>
1.61

$$$$
>  <MOLECULE>
CC(=O)Oc1c(I)cc(-c2ccc(F)cc2F)cc1C(=O)O [7b]

>  <log10(IC50)>
0.68

$$$$
>  <MOLECULE>
Nc1c(I)cc(-c2ccc(F)cc2F)cc1C(=O)O [5b]

>  <log10(IC50)>
1.21

$$$$
>  <MOLECULE>
COC(=O)[C@H](C)NC(=O)c1cc(-c2ccc(F)cc2F)cc(I)c1O [10b]

>  <log10(IC50)>
0.74

$$$$
>  <MOLECULE>
COC(=O)[C@H](CO)NC(=O)c1cc(-c2ccc(F)cc2F)cc(I)c1O [15b]

>  <log10(IC50)>
0.86

$$$$
>  <MOLECULE>
CCOC(=O)c1cc(-c2ccc(F)cc2F)cc(I)c1O [4b]

>  <log10(IC50)>
0.84

$$$$
